Measured EC50 of individual entries
- System: PANC-1 cells
- Protocol Text: Assay I of bioactive molecules on cell viability in vitro (CCK8)
- Type: cell-based
- Reported Conditions: Homo sapiens, read-out: EC50(nM), killing of PANC-1 cells
Answer with a number only, understood to be in nM.

CC[C@@]1(O)C(=O)OCc2c1cc1n(c2=O)Cc2c-1nc1cc(F)c(C)c3c1c2[C@@H](NC(=O)CO)CC3 [DXD, DXd, reference compound]; 966

Entry under test: CC[C@@]1(O)C(=O)OCc2c1cc1n(c2=O)Cc2c-1nc1cc3c(cc1c2CCCO)OCO3 . Its EC50 was 94.5

---

- Tested on: KYSE520
- Protocol Text: Assay II of bioactive molecules on cell viability in vitro (CCK8)
- Format: cell-based
- Reported Conditions: Homo sapiens, KYSE-520; CCK8, 3-4 days
Observable: pEC50
Expect pEC50 as a plain number equal to -log10 of the molar concentration.

Entry under test: CC[C@@]1(O)C(=O)OCc2c1cc1n(c2=O)Cc2c-1nc1cc3c(cc1c2CCCO)OCO3 . Its pEC50 was 7.30

---

Measured EC50 of individual entries
- Test system: NCI-H358
- Protocol Text: Assay II of bioactive molecules on cell viability in vitro (CCK8)
- Format: cell-based
- Reported Conditions: Homo sapiens, CCK8, 3-4 days
Answer with a number only, understood to be in nM.

Please review the following examples before continuing.
CC[C@@]1(O)C(=O)OCc2c1cc1n(c2=O)Cc2c-1nc1cc3c(cc1c2CCCOCNC(=O)CN)OCO3 [Example B1.14]; 581
CC[C@@]1(O)C(=O)OCc2c1cc1n(c2=O)Cc2c-1nc1cc(F)c(C)c3c1c2[C@@H](NC(=O)CO)CC3 [DXD, DXd, reference compound]; 262

Now look at this one.
Entry under test: CC[C@@]1(O)C(=O)OCc2c1cc1n(c2=O)Cc2c-1nc1cc3c(cc1c2CCCO)OCO3 [Example A1.9] . Its EC50 was 46.2

---

- Protocol Text: Tumor tissue distribution of antibody drug conjugates in HT29 xenografts (A1.9 and ADC in plasma/serum and tumor)
- Type: in vivo, BALB/c Nude mice
- Reported Conditions: BALB/c Nude, mouse, intravenous, 10 mg/kg, HT29 model, read-out: distribution difference of A1.9 in tumors compared with plasma
Observable: Kp

Entry under test: CC[C@@]1(O)C(=O)OCc2c1cc1n(c2=O)Cc2c-1nc1cc3c(cc1c2CCCO)OCO3 . Its Kp was ≤ 18

---

- Test system: NCl-H322M cells
- Protocol Text: Assay I of bioactive molecules on cell viability in vitro (CCK8)
- Type: cell-based
- Reported Conditions: Homo sapiens, read-out: EC50(nM), killing of NCl-H322M cells
Observable: EC50
Provide a numeric answer, followed by its unit.

CC[C@@]1(O)C(=O)OCc2c1cc1n(c2=O)Cc2c-1nc1cc(F)c(C)c3c1c2[C@@H](NC(=O)CO)CC3 [DXD, DXd, reference compound]; 76.9 nM

Now look at this one.
GET /values?item= CC[C@@]1(O)C(=O)OCc2c1cc1n(c2=O)Cc2c-1nc1cc3c(cc1c2CCCO)OCO3 &system= NCl-H322M cells returns EC50: 30.4 nM

---

- Tested on: HCC1806 cells
- Protocol Text: Assay I of bioactive molecules on cell viability in vitro (CCK8)
- Format: cell-based
- Reported Conditions: Homo sapiens, HCC1806, 72 h; 7500 cells/well, 3 days; read-out: EC50(nM), killing of HCC1806 cells
Measured EC50 of individual entries
Provide a numeric answer, followed by its unit.

CC[C@@]1(O)C(=O)OCc2c1cc1n(c2=O)Cc2c-1nc1cc(F)c(C)c3c1c2[C@@H](NC(=O)CO)CC3 [DXD, DXd, reference compound]; 37 nM

Now look at this one.
Entry under test: CC[C@@]1(O)C(=O)OCc2c1cc1n(c2=O)Cc2c-1nc1cc3c(cc1c2CCCO)OCO3 . Its EC50 was 1.9 nM
